Where do these numbers come from? They come from PubChem BioAssay AID1259407.

# Tested on: CCRIS mutagenicity, Ames/micronucleus/aberration tests
# experimentSummary: CCRIS mutagenicity studies
# testConditions: Test System: AMES SALMONELLA TYPHIMURIUM; Strain/Indicator: TA97; Metabolic Activation: NONE; Method: PREINCUBATION
Calls of active or inactive are those of the source. The rule behind the calls is not given here.
The reply should name one outcome from Yes (active), No (inactive)

Q: What classification did `OCCBr` end up with in this test?
A: No

---

# System: CCRIS mutagenicity, Ames/micronucleus/aberration tests
# experimentSummary: CCRIS mutagenicity studies
# testConditions: Test System: AMES SALMONELLA TYPHIMURIUM; Strain/Indicator: TA100; Metabolic Activation: NONE; Method: PREINCUBATION
# From the text: The CCRIS database contains chemical records with carcinogenicity, mutagenicity, tumor promotion, and tumor inhibition test results. It was developed by the National Cancer Institute (NCI). Data are derived from studies cited in primary journals, current awareness tools, NCI reports, and other sources. Test results have been reviewed by experts in carcinogenesis and mutagenesis. CCRIS provides historical information from the years 1985 - 2011. It is no longer updated. […]
Calls of active or inactive are those of the source. How the calls were made is not given here.
The reply should name one outcome from True = active, False = inactive

CCOc1ccc(N(O)C(C)=O)cc1; False
O=[N+]([O-])c1ccc2ncccc2c1; True
CC(=O)Nc1ccc(O)cc1; False
CC(=O)Nc1cccc(N)c1; False
Cc1cc(=O)oc2cc(O)ccc12; False
Oc1ccc(Cl)cc1Cc1ccccc1; False
COC(=O)CC(=O)OC; False

Continue with the next compound.
Q: What classification did `c1ccc2[nH]cnc2c1` end up with in this test?
A: False

---

# Test system: CCRIS mutagenicity, Ames/micronucleus/aberration tests
# experimentSummary: CCRIS mutagenicity studies
# testConditions: Test System: AMES SALMONELLA TYPHIMURIUM; Strain/Indicator: TA102; Metabolic Activation: NONE; Method: PREINCUBATION
# Excerpt: The CCRIS database contains chemical records with carcinogenicity, mutagenicity, tumor promotion, and tumor inhibition test results. It was developed by the National Cancer Institute (NCI). Data are derived from studies cited in primary journals, current awareness tools, NCI reports, and other sources. Test results have been reviewed by experts in carcinogenesis and mutagenesis. CCRIS provides historical information from the years 1985 - 2011. It is no longer updated. […]
The source made the active and inactive calls. The rule behind the calls is not given here.
The reply should name one outcome from Yes = active, No = inactive

O=[N+]([O-])c1ccc(O)c([N+](=O)[O-])c1; No
Cc1cnc2ccccc2n1; No
NCc1ccc(CN)cc1; No
Oc1ccc2cc(SSc3ccc4cc(O)ccc4c3)ccc2c1; No
CC(=O)C(C)=O; Yes

Continue with the next molecule.
Q: What classification did Cc1c(N)nc(C(CC(N)=O)NCC(N)C(N)=O)nc1C(=O)NC(C(=O)NC(C)C(O)C(C)C(=O)NC(C(=O)NCCc1nc(-c2nc(C(=O)NCCc3cnc[nH]3)cs2)cs1)C(C)O)C(OC1OC(CO)C(O)C(O)C1OC1OC(CO)C(O)C(OC(N)=O)C1O)c1cnc[nH]1 (stereo unspecified) end up with in this test?
A: Yes

---

# Tested on: CCRIS mutagenicity, Ames/micronucleus/aberration tests
# experimentSummary: CCRIS mutagenicity studies
# testConditions: Test System: AMES SALMONELLA TYPHIMURIUM; Strain/Indicator: TA97; Metabolic Activation: NONE; Method: STANDARD PLATE
The source made the active and inactive calls. The rule behind the calls is not given here.
The reply should name one outcome from active, inactive

Illustrative cases are given below, each with its answer.
CC(=O)[C@]1(O)Cc2c(O)c3c(c(O)c2[C@@H](O[C@H]2C[C@H](N)[C@H](O)[C@H](C)O2)C1)C(=O)c1c(O)cccc1C3=O; active
Nc1ccc2cc3ccccc3cc2c1; inactive
CN(C)N=Nc1ccc([N+](=O)[O-])cc1; active
ClCc1ccncc1; inactive
O=c1cc(-c2ccccc2)cc(-c2ccccc2)n1/N=C/c1ccc([N+](=O)[O-])o1; inactive

Continue with the next compound.
Q: What classification did `O=C/C=C/C=C/C=O` end up with in this test?
A: active
